Test Summary: in vivo
Condition: mouse, plasma, po, 50 mg/kg
Experimental Readout: AUC (µM·h)
One number for each entry, in µM·h.

-- ask Endpoint output: AUC of CCN1C(=O)[C@@H](NC(=O)c2cccc(C)c2)[C@@H](c2ccc(F)cc2)c2c(C)nn(-c3ccccc3)c21 (relative stereo) [Compound 2] . Value?
-- reply 2.9

---

Please provide measured clearance for the entries that follow.
Test Summary: in vivo
Condition: mouse, plasma, iv, 15 mg/kg

CCN1C(=O)[C@@H](NC(=O)c2cccc(C)c2)[C@@H](c2ccc(F)cc2)c2c(C)nn(-c3ccccc3)c21 (relative stereo) [Compound 2] :: 86.7 mL/min/kg

Now, please, on to the next compound.
-- ask Endpoint output: clearance of CCN1C(=O)[C@@H](NC(=O)c2cccc(C(F)(F)F)c2)[C@@H](c2ccc(F)cc2)c2c(CN)nn(-c3ccccc3)c21 (relative stereo) [Compound 40] . Value?
-- reply 20 mL/min/kg
